target or system: Phospholipase A2 group V (Homo sapiens)
method notes: Inhibition of recombinant human sPLA2-V
IC50 values for the molecules below.

{"smi": "CCOc1cc(N)n2nc(Nc3cc(OC)ccn3)c(C#N)c2n1", "measurement units": "nM", "IC50": 3200}
{"smi": "COc1ccnc(Nc2n[nH]c(N)c2C#N)c1", "measurement units": "nM", "IC50": 3100}
{"smi": "COc1ccnc(Nc2nn3c(C)cc(C)nc3c2C#N)c1", "measurement units": "nM", "IC50": 3200}
{"smi": "C[C@@H]1C[C@H]2[C@@H]3CCC4=CC(=O)C=C[C@]4(C)[C@@]3(F)[C@@H](O)C[C@]2(C)[C@@]1(O)C(=O)CO", "measurement units": "nM", "IC50": 590}
{"smi": "CCOc1cc(C)nc2c(C#N)c(Nc3cc(OC)ccn3)nn12", "measurement units": "nM", "IC50": 1700}
{"smi": "COc1ccnc(Nc2nn3c(SC)c(C#N)c(N)nc3c2C#N)c1", "measurement units": "nM", "IC50": 2600}
{"smi": "COc1ccnc(Nc2nn3c(SC)c(C#N)c(O)nc3c2C#N)c1", "measurement units": "nM", "IC50": 1000}
